Molecular target: p38 (Homo sapiens, UniProt Q16539)
Construct: made in house
Sequence (Q16539 whole entry): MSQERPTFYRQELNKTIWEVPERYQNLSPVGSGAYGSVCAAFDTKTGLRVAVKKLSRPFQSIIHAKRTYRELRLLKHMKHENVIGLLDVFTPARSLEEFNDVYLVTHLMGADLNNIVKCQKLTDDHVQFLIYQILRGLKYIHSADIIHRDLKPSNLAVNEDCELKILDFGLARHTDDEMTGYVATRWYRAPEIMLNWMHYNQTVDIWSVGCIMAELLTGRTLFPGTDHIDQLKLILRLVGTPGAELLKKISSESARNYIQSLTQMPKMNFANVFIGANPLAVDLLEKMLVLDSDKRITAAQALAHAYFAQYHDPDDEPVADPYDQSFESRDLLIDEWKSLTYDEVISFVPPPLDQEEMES
Experiment: Protein Kinase Assay (33P incorporation from γ-[33P]ATP into GST-ATF-2 substrate)
Format: biochemical
Conditions: compound at 3 μM; read-out: Protein Kinase (% Inhibition at 3 μM)
In this section, each of the compounds is paired with its reported inhibition at 3 µM.

| compound | inhibition at 3 µM |
| --- | --- |
| Cc1cccc(NC(=O)Nc2sc(C(C)(C)C)cc2C(=O)N2CCS(=O)(=O)CC2)c1 [Example 67] | 76 to 100% |
| CC(C)(C)c1cc(C(=O)N2CCS(=O)(=O)CC2)c(NC(=O)Nc2ccc(C#N)c(C(F)(F)F)c2)s1 [Example 65] | 26 to 50% |
| CC(C)(C)c1cc(C(=O)N2CCS(=O)(=O)CC2)c(NC(=O)Nc2cnc(O)c3ccccc23)s1 [Example 85] | 26 to 50% |
| CC(C)(C)c1cc(C(=O)N2CCS(=O)(=O)CC2)c(NC(=O)NC2(c3ccccc3)CC2)s1 [Example 77] | 26 to 50% |
| CC(C)(C)c1cc(C(=O)N[C@H]2CC(=O)NC2=O)c(NC(=O)Nc2cccc3ccccc23)s1 [Example 86] | 76 to 100% |
| CC(C)(C)c1cc(C(=O)Nc2cccnc2)c(NC(=O)Nc2ccc(Cl)cc2)s1 [Example 75] | 76 to 100% |
| CC(C)(C)c1cc(C(=O)N2CCNC(=O)CC2)c(NC(=O)Nc2ccc3c(c2)OC(F)(F)O3)s1 [Example 74] | 76 to 100% |
| CC(C)(C)c1cc(C(=O)N2CCNS(=O)(=O)CC2)c(NC(=O)Nc2ccc3c(c2)OC(F)(F)O3)s1 [Example 94] | 76 to 100% |
| CC(C)(C)c1cc(C(=O)N2CCNC(=O)C2)c(NC(=O)Nc2ccc(Cl)cc2)s1 [Example 47] | 76 to 100% |

* * *

In this section, each of the compounds is paired with its reported inhibition at 10 µM.
Biological target: p38 (Homo sapiens)
Construct: made in house
Assay: Protein Kinase Assay (33P incorporation from γ-[33P]ATP into GST-ATF-2 substrate)
Assay type: biochemical
Conditions: compound at 10 μM
experimental endpoint: inhibition at 10 µM

| compound | assayed system | experimental endpoint | data value |
| --- | --- | --- | --- |
| CC(C)(C)c1cc(CN2CCOCC2)c(NC(=O)Nc2cccc3ccccc23)s1 [Example 19] | p38 (Homo sapiens) | inhibition at 10 µM | 51 to 75% |
| CC(C)(C)c1cc(C(=O)N2CCNC(=O)CC2)c(NC(=O)Nc2ccc3ccccc3c2)s1 [Example 44] | p38 (Homo sapiens) | inhibition at 10 µM | 76 to 100% |
| CC(C)(C)c1cc(C(=O)N2CCS(=O)(=O)CC2)c(NC(=O)NC2CCc3ccccc32)s1 (centres unmarked) [Example 30] | p38 (Homo sapiens) | inhibition at 10 µM | 51 to 75% |
| CC(C)(C)c1cc(NC(=O)Nc2ccc(Cl)cc2)c(C(=O)N2CCS(=O)(=O)CC2)s1 [Example 10] | p38 (Homo sapiens) | inhibition at 10 µM | 76 to 100% |
| CC(C)(C)c1cc(NC(=O)Nc2ccc(Cl)cc2)c(CN2CCS(=O)(=O)CC2)s1 [Example 15] | p38 (Homo sapiens) | inhibition at 10 µM | 51 to 75% |
| CC(C)(C)c1cc(C(=O)N2CCS(=O)(=O)CC2)c(NC(=O)Nc2cccc3cccnc23)s1 [Example 29] | p38 (Homo sapiens) | inhibition at 10 µM | 0 to 25% |
| CC(C)(C)c1cc(C(=O)N2CCS(=O)(=O)CC2)c(NC(=O)Nc2ccc(Oc3ccccc3)cc2)s1 [Example 28] | p38 (Homo sapiens) | inhibition at 10 µM | 0 to 25% |
| CC(C)(C)c1cc(C(=O)N2CCS(=O)(=O)CC2)c(NC(=O)Nc2cccc3cn[nH]c23)s1 [Example 32] | p38 (Homo sapiens) | inhibition at 10 µM | 26 to 50% |

Data origin: patent US7741479B2
